List of apparent Kd (screen) values.
# test-system: T1, TNFR1 (Homo sapiens, UniProt P19438)
# T1 chain: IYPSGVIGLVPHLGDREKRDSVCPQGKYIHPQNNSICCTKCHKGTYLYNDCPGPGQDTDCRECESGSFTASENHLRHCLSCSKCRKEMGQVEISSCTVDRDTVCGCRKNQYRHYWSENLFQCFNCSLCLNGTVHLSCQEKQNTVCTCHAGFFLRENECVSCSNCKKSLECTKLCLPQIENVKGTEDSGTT
# assay-name: yeast display SC50
Report only the number, with the unit nM understood.

# input For the binder E43K (designed binder) MTLQELLREEALRRAEAEAFRYALELLAEKFPEQKEYLLDLAKEIESQIRSLSGVDVEDVRKFLDKEWAWVKELLAEHPAELAEVEAARAARLAELRAEVEAKVAA , what apparent Kd (screen) is on record?
# output 0.79

# input Follow-up entry: L39W (designed binder) MTLQELLREEALRRAEAEAFRYALELLAEKFPEQKEYLWDLAEEIESQIRSLSGVDVEDVRKFLDKEWAWVKELLAEHPAELAEVEAARAARLAELRAEVEAKVAA
# output 0.869

# input Follow-up entry: E67M (designed binder) MTLQELLREEALRRAEAEAFRYALELLAEKFPEQKEYLLDLAEEIESQIRSLSGVDVEDVRKFLDKMWAWVKELLAEHPAELAEVEAARAARLAELRAEVEAKVAA
# output 1.27

# input Follow-up entry: V55H (designed binder) MTLQELLREEALRRAEAEAFRYALELLAEKFPEQKEYLLDLAEEIESQIRSLSGHDVEDVRKFLDKEWAWVKELLAEHPAELAEVEAARAARLAELRAEVEAKVAA
# output 1.16

# input Follow-up entry: D56W (designed binder) MTLQELLREEALRRAEAEAFRYALELLAEKFPEQKEYLLDLAEEIESQIRSLSGVWVEDVRKFLDKEWAWVKELLAEHPAELAEVEAARAARLAELRAEVEAKVAA
# output 1.69

# input Follow-up entry: M1D (designed binder) DTLQELLREEALRRAEAEAFRYALELLAEKFPEQKEYLLDLAEEIESQIRSLSGVDVEDVRKFLDKEWAWVKELLAEHPAELAEVEAARAARLAELRAEVEAKVAA
# output 0.446

# input Follow-up entry: L27V (designed binder) MTLQELLREEALRRAEAEAFRYALELVAEKFPEQKEYLLDLAEEIESQIRSLSGVDVEDVRKFLDKEWAWVKELLAEHPAELAEVEAARAARLAELRAEVEAKVAA
# output 1.54

# input Follow-up entry: E67D (designed binder) MTLQELLREEALRRAEAEAFRYALELLAEKFPEQKEYLLDLAEEIESQIRSLSGVDVEDVRKFLDKDWAWVKELLAEHPAELAEVEAARAARLAELRAEVEAKVAA
# output 4.83
